# assay protocol: Solubility of aspirin in solvents
# Type: physicochemical
# condition description: ethanol, organic solvent or mixture; EtOH, 23 °C
property name: solubility (mg/mL)
Write the number in mg/mL without appending the unit.

# get_value(readout='solubility', item= CC(=O)Oc1ccccc1C(=O)O )
125

###

# assay protocol: Solubility of aspirin in solvents
# Type: physicochemical
# condition description: acetone, 3 °C, organic solvent or mixture
property name: solubility

Look at this molecule and give its reported solubility. CC(=O)Oc1ccccc1C(=O)O
143 mg/mL

###

# assay protocol: Solubility of aspirin in solvents
# Assay type: physicochemical
# condition description: DMF, 23 °C, organic solvent or mixture
property name: solubility (mg/mL)
Express it in mg/mL; write the number only.

I would be grateful if you could share the reported solubility for CC(=O)Oc1ccccc1C(=O)O .
500
